Target: Human MMP13 (Homo sapiens)
Construct: purchased Chemicon CC068
Test: MMP13 inhibition experiment
Assay type: biochemical
Settings: concentration required for 50% inhibition of enzyme activity; read-out: IC50 value MMP-13
pIC50: −log10 of the molar value.
quantity-measured: pIC50

The following compounds have reported results that may help.
Please look up its pIC50: CC(=O)N(O)C(C=C1CCSCC1)CS(=O)(=O)c1ccc(OCc2cc(C)nc3ccccc23)cc1 (stereo not shown) [Example I-126] 4.15

Please look up its pIC50: CON=C1CCC(C(CS(=O)(=O)c2ccc(OCc3cc(C)nc4ccccc34)cc2)N(O)C=O)CC1 (stereo not shown) [Example I-12] 5.00

[I] Cc1cc(Cl)cc(COc2ccc(S(=O)(=O)CC(CC3CCC(=O)CC3)N(O)C=O)cc2)c1 (stereo not shown) [Example I-101]
[II] COCC(=O)N1CCN(CC(CS(=O)(=O)c2ccc(OCc3cc(C)nc4ccccc34)cc2)N(O)C=O)CC1 (stereo not shown) [Example I-53]
Identify the entry with the smaller pIC50: I or II . Answer by quoting the chosen item's label. II
(II: 4.40, I: 5.52)
